assay-protocol: clinical
condition-description: human, in vivo, AUCτ, geometric least squares mean
quantity-name: AUC
Note: state the figure and append the unit.

AUC recorded for this compound, CC(C)c1c(C(=O)Nc2ccccc2)c(-c2ccccc2)c(-c2ccc(F)cc2)n1CC[C@@H]1C[C@@H](O)CC(=O)O1 [Atorvastatin lactone, atorvastatin lactone] , is 0.0521 µg·h/mL
